test system: Hep3B; test: Cytotoxicity assay (cell titer-glo and calcein AM), Hep3B; conditions: read-out: Cytotoxicity IC50, Hep 3B, CTG; Hep 3B; CTG (cell titer-glo) readout; % error in parentheses
readout_type: IC50

molecule | recorded_result
COc1cc2c(c(OC)c1OC)-c1ccc(OC)c(=O)cc1[C@@H](NC(=O)CN(OC)[C@@H]1O[C@H](CF)[C@@H](O)[C@H](O)[C@H]1O)CC2 [Col54, 6-deoxy-6-fluoro-D-glucoside] | > 10 µM
COc1cc2c(c(OC)c1OC)-c1ccc(OC)c(=O)cc1[C@@H](NC(=O)CN(OC)[C@@H]1O[C@H](CBr)[C@H](O)[C@H](O)[C@H]1O)CC2 [Col42, 6-deoxy-6-bromo-D-galactoside] | > 10 µM
COc1cc2c(c(OC)c1OC)-c1ccc(OC)c(=O)cc1[C@@H](NC(=O)CN(OC)[C@@H]1O[C@H](CO)[C@@H](N=[N+]=[N-])[C@H](O)[C@H]1O)CC2 [Col44, 4-deoxy-4-azido-D-glucoside] | 0.453 µM

----------
test system: MCF7; assay: Cytotoxicity assay (cell titer-glo and calcein AM), MCF7; settings: read-out: Cytotoxicity IC50, MCF7, calcein, calcein AM readout, % error in parentheses
Doc: threshold 1000 nM (exclusive). Items with IC50 beneath it return satisfied; others return not satisfied.

compound | assay_target | assigned_class
COc1cc2c(c(OC)c1OC)-c1ccc(OC)c(=O)cc1[C@@H](NC(=O)CN(OC)[C@@H]1O[C@H](CO)[C@@H](O)[C@H](O)[C@H]1F)CC2 [Col34, 2-fluoro-2-deoxy-D-glucoside] | MCF7 | satisfied
CCCCCCCCCC(=O)N[C@@H]1[C@@H](O)[C@H](N(CC(=O)N[C@H]2CCc3cc(OC)c(OC)c(OC)c3-c3ccc(OC)c(=O)cc32)OC)O[C@H](CO)[C@H]1O [Col60, 3-deoxy-3-N-decanoyl-D-glucosaminoside] | MCF7 | not satisfied
COc1cc2c(c(OC)c1OC)-c1ccc(OC)c(=O)cc1C(NC(=O)CN(OC)C1CC(O)C(O)C(C)O1)CC2 [Col65, D-Digitoxoside] | MCF7 | satisfied
COc1cc2c(c(OC)c1OC)-c1ccc(OC)c(=O)cc1[C@@H](NC(=O)CN(OC)[C@@H]1OC[C@@H](O)[C@H](O)[C@@H]1O)CC2 [Col1, D-lyxoside] | MCF7 | not satisfied
COc1cc2c(c(OC)c1OC)-c1ccc(OC)c(=O)cc1[C@@H](NC(=O)CN(OC)[C@@H]1O[C@H](C(=O)O)[C@@H](O)[C@H](O)[C@H]1O)CC2 [Col15, D-glucuronoside] | MCF7 | not satisfied
COc1cc2c(c(OC)c1OC)-c1ccc(OC)c(=O)cc1[C@@H](NC(=O)CN(OC)[C@@H]1O[C@H](CF)[C@@H](O)[C@H](O)[C@H]1O)CC2 [Col54, 6-deoxy-6-fluoro-D-glucoside] | MCF7 | not satisfied
COc1cc2c(c(OC)c1OC)-c1ccc(OC)c(=O)cc1C(NC(=O)CN(OC)C1OCC(O)C(O)C1O)CC2 [Col20, D-arabinoside] | MCF7 | not satisfied
COc1cc2c(c(OC)c1OC)-c1ccc(OC)c(=O)cc1[C@@H](NC(=O)CN(OC)[C@@H]1O[C@H](C(=O)O)[C@H](O)[C@H](O)[C@H]1O)CC2 [Col18, D-Galacturonoside] | MCF7 | not satisfied
COc1cc2c(c(OC)c1OC)-c1ccc(OC)c(=O)cc1C(NC(=O)CN(OC)C1OC(COCc3ccccc3)C(OCc3ccccc3)C1OCc1ccccc1)CC2 (centres unmarked) [Col53] | MCF7 | satisfied
COc1cc2c(c(OC)c1OC)-c1ccc(OC)c(=O)cc1[C@@H](NC(=O)CN(OC)[C@@H]1O[C@H](CSC(C)=O)[C@H](O)[C@H](O)[C@H]1O)CC2 [Col68, 6-deoxy-6-thio-acyl-D-galactoside] | MCF7 | not satisfied
COc1cc2c(c(OC)c1OC)-c1ccc(OC)c(=O)cc1C(NC(=O)CN(OC)C1OC(C)C(O)C(O)C1O)CC2 [Col14, L-fucoside] | MCF7 | not satisfied
